// reported chromatographic logD for each item listed
- protocol_summary: CHI Log D procedure
- Assay type: physicochemical
- measurement_conditions: pH 7.4, CHI Log D
Answer with a bare number; do not write a unit.

Reference set, count: 4
INSERT INTO results (compound, data_value) VALUES
  ('CC(=O)N1CCC[C@]12CC=CCCCC1(CCCC=CCCCOC(=O)N3CC[C@@](C(=O)N[C@@H](Cc4ccsc4)C(=O)N[C@@H](Cc4csc5ccccc45)C(=O)N[C@@H](CC(N)=O)C(=O)N[C@H](C)C(N)=O)(C3)NC(=O)[C@H](CC(N)=O)NC(=O)[C@H](Cc3ccccc3)NC(=O)[C@H](C)NC(=O)[C@H](C)NC(=O)[C@H](CC(=O)O)NC(=O)[C@H](CC(=O)O)NC1=O)NC(=O)[C@H](CC(C)(C)C)NC(=O)[C@H](CC(=O)O)NC2=O (some centres unmarked) [I-824]', 2.06),
  ('CC(=O)N1CCC[C@]12CC=CCCCC1(CCCC=CCCCOC(=O)N3CC[C@@](C(=O)N[C@@H](Cc4ccsc4)C(=O)N[C@@H](Cc4csc5ccccc45)C(=O)N[C@@H](CC(N)=O)C(=O)N[C@@H](C)C(N)=O)(C3)NC(=O)[C@H](CC(N)=O)NC(=O)[C@H](Cc3ccccc3)NC(=O)[C@H](C)NC(=O)[C@H](C)NC(=O)[C@H](CC(=O)O)NC(=O)[C@H](CC(=O)O)NC1=O)NC(=O)[C@H](CC(C)(C)C)NC(=O)[C@H](CC(=O)O)NC2=O (some centres unmarked) [I-821]', 2.07),
  ('CC(=O)N1CCC[C@]12CC=CCCCC1(CCCC=CCCCOC(=O)N3CC[C@@](C(=O)N[C@@H](Cc4ccccc4Cl)C(=O)N[C@@H](Cc4csc5ccccc45)C(=O)N[C@@H](CCC(N)=O)C(N)=O)(C3)NC(=O)[C@H](CO)NC(=O)[C@H](Cc3ccc(C(F)(F)F)cc3)NC(=O)[C@H](C)NC(=O)[C@H](C)NC(=O)[C@H](CC(=O)O)NC(=O)[C@H](CC(=O)O)NC1=O)NC(=O)[C@H](CC1CCCCC1)NC(=O)[C@H](CC(=O)O)NC2=O (some centres unmarked) [I-1120]', 2.54),
  ('CC(=O)N1CCC[C@]12CC=CCCCC1(CCCC=CCCCOC(=O)N3CC[C@@](C(=O)N[C@@H](Cc4ccsc4)C(=O)N[C@@H](Cc4csc5ccccc45)C(=O)N[C@@H](CCC(N)=O)C(=O)N[C@@H](CCCCNC(=O)CCc4cccc5ccccc45)C(N)=O)(C3)NC(=O)[C@H](CC(N)=O)NC(=O)[C@H](Cc3ccccc3)NC(=O)[C@H](C)NC(=O)[C@H](C)NC(=O)[C@H](CC(=O)O)NC(=O)[C@H](CC(=O)O)NC1=O)NC(=O)[C@H](CC(C)(C)C)NC(=O)[C@H](CC(=O)O)NC2=O (some centres unmarked) [I-903]', 2.38);

// below: chromatographic logD requested for another compound
Ask: Looking for the measured chromatographic logD of CC(=O)N1CCC[C@]12CC=CCCCC1(CCCC=CCCCOC(=O)N3CC[C@@](C(=O)N[C@@H](Cc4ccccc4Cl)C(=O)N[C@@H](Cc4csc5ccccc45)C(=O)N[C@H](CO)CC(C)C)(C3)NC(=O)[C@H](CC(N)=O)NC(=O)[C@H](Cc3ccccc3)NC(=O)[C@H](C)NC(=O)[C@H](C)NC(=O)[C@H](CC(=O)O)NC(=O)[C@H](CC(=O)O)NC1=O)NC(=O)[C@H](CC(C)(C)C)NC(=O)[C@H](CC(=O)O)NC2=O (some centres unmarked) [I-1080] , can you help?
Reply: 2.59
